# Test system: PCSK9 gene
# protocol_text: PCSK9 gRNA/SpCas9 editing in primary human hepatocytes (Tables 2, 4)
# Format: cell-based
# experimental_context: 500 ng/RNA/mL; SpCas9 mRNA MS002 1:1 by weight
In the oligonucleotide strings, read from the 5' end, every base follows the letter of its sugar. An asterisk marks phosphorothioate; unmarked linkages are phosphodiester. Other units and linkages are bracketed, terminal groups are in braces. A string of capitals states the bases alone. m = 2'-O-methyl; r = 2'-OH (RNA)
A collection of molecules and their measured Human Primary Hepatocyte Editing % 500
quantity_name: Human Primary Hepatocyte Editing % 500 (%)

{"molecule": "GA175: PCSK9 gRNA; protospacer GAAGATGAGTGGCGACCTGC (SEQ ID NO: 169) (nucleic acid, sugars from the 5' end m3 r94 m3, linkages s3 o93 s3 (s phosphorothioate, o phosphodiester), T or U not given here) guide: GAAGAUGAGUGGCGACCUGCGUUUUAGAGCUAGAAAUAGCAAGUUAAAAUAAGGCUAGUCCGUUAUCAACUUGAAAAAGUGGCACCGAGUCGGUGCUUUU", "observed_measurement": 7.53}
{"molecule": "GA207: PCSK9 gRNA; protospacer GGAAATCGAGGGCAGGGTCA (SEQ ID NO: 201) (nucleic acid, sugars from the 5' end m3 r94 m3, linkages s3 o93 s3 (s phosphorothioate, o phosphodiester), T or U not given here) guide: GGAAAUCGAGGGCAGGGUCAGUUUUAGAGCUAGAAAUAGCAAGUUAAAAUAAGGCUAGUCCGUUAUCAACUUGAAAAAGUGGCACCGAGUCGGUGCUUUU", "observed_measurement": 3.46}
{"molecule": "GA227: PCSK9 gRNA; protospacer GTCCCGGAAGTTGCCGGCAG (SEQ ID NO: 221) (nucleic acid, sugars from the 5' end m3 r94 m3, linkages s3 o93 s3 (s phosphorothioate, o phosphodiester), T or U not given here) guide: GUCCCGGAAGUUGCCGGCAGGUUUUAGAGCUAGAAAUAGCAAGUUAAAAUAAGGCUAGUCCGUUAUCAACUUGAAAAAGUGGCACCGAGUCGGUGCUUUU", "observed_measurement": 8.29}
{"molecule": "GA209: PCSK9 gRNA; protospacer CTTGGCAGTTGAGCACGCGC (SEQ ID NO: 203) (nucleic acid, sugars from the 5' end m3 r94 m3, linkages s3 o93 s3 (s phosphorothioate, o phosphodiester), T or U not given here) guide: CUUGGCAGUUGAGCACGCGCGUUUUAGAGCUAGAAAUAGCAAGUUAAAAUAAGGCUAGUCCGUUAUCAACUUGAAAAAGUGGCACCGAGUCGGUGCUUUU", "observed_measurement": 8.76}
{"molecule": "GA217: PCSK9 gRNA; protospacer GTGGTCAGCGGCCGGGATGC (SEQ ID NO: 211) (nucleic acid, sugars from the 5' end m3 r94 m3, linkages s3 o93 s3 (s phosphorothioate, o phosphodiester), T or U not given here) guide: GUGGUCAGCGGCCGGGAUGCGUUUUAGAGCUAGAAAUAGCAAGUUAAAAUAAGGCUAGUCCGUUAUCAACUUGAAAAAGUGGCACCGAGUCGGUGCUUUU", "observed_measurement": 2.75}
{"molecule": "GA179: PCSK9 gRNA; protospacer GAGTGGCGACCTGCTGGAGC (SEQ ID NO: 173) (nucleic acid) guide: mG*mA*mG*rUrGrGrCrGrArCrCrUrGrCrUrGrGrArGrCrGrUrUrUrUrArGrArGrCrUrArGrArArArUrArGrCrArArGrUrUrArArArArUrArArGrGrCrUrArGrUrCrCrGrUrUrArUrCrArArCrUrUrGrArArArArArGrUrGrGrCrArCrCrGrArGrUrCrGrGrUrGrCrU*mU*mU*mU", "observed_measurement": 6}
